Reported pIC50 values for the following compounds.
Molecular target: Induced myeloid leukemia cell differentiation protein Mcl-1 (Homo sapiens) (UniProt Q07820)
Sequence (Q07820 whole entry, looked up): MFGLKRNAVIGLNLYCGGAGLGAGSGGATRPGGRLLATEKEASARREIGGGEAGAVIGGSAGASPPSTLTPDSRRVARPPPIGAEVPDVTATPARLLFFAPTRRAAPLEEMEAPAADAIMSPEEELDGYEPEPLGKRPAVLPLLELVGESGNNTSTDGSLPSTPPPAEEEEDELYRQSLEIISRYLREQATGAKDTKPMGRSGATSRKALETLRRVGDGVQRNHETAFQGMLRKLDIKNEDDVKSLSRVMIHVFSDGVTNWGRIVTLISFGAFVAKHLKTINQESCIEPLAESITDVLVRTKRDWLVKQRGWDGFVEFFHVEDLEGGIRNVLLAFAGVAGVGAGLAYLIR
Test: Mcl-1/Noxa binding inhibitor potency, dose response, biochemical, TR-FRET (AID 1417)
Conditions: Mcl-1/Noxa peptide interaction, cell-free TR-FRET (terbium/rhodamine), 2 h; measured here: absolute IC50
Value format note: pIC50 is -log10 of concentration (mol/L); just state the number.

Study these solved cases before continuing.
O=C1NN(c2ccc(F)c(Cl)c2)C(=O)/C1=C\c1cccc(OC(=O)c2cccs2)c1 | 5.16
Cc1ccc(N=C2NC(=O)/C(=C/C=C/c3ccco3)S2)cc1 | 5.15

Let's switch to this compound now.
pIC50 for C=CCSC1=N/C(=C\C=C\c2ccco2)C(=O)S1 ?
5.30

* * *

Molecular target: Induced myeloid leukemia cell differentiation protein Mcl-1 (Homo sapiens)
Experiment: Mcl-1/Noxa binding inhibitor potency, dose response, biochemical, TR-FRET (AID 1417)
Details: Mcl-1/Noxa peptide interaction, cell-free TR-FRET (terbium/rhodamine), 2 h; measured here: absolute IC50
A collection of molecules and their measured pIC50
Answer as the number alone; pIC50 is minus log10 of concentration in mol/L.

Cc1ccc(-n2cccc2/C=C2/C(=N)N3C(=NC2=O)SN=C3S(C)(=O)=O)cc1 | 5.27

Please report the recorded pIC50 for Cc1ccc(N2C(=O)NC(=O)/C(=C/c3ccoc3)C2=O)cc1 .
5.36

* * *

Biological target: Induced myeloid leukemia cell differentiation protein Mcl-1 (Homo sapiens)
Assay: Mcl-1/Noxa binding inhibitor potency, dose response, biochemical, TR-FRET (AID 1417)
Settings: Mcl-1/Noxa peptide interaction, cell-free TR-FRET (terbium/rhodamine), 2 h; measured here: absolute IC50
measured-property: pIC50
Schema: pIC50 number; meaning minus log10 of the concentration expressed in molar units.

# lookup: pIC50 of O=C(CNc1ccc2ccccc2c1)N/N=C/C=C/c1cccc([N+](=O)[O-])c1
5.14

Any idea what pIC50 was measured for CC1CCCCC12NC(=O)N(CC(=O)Nc1sc3c(c1C(N)=O)CCC3)C2=O (stereo unspecified) ?
5.40

Reported pIC50 for O=S(=O)(c1ccc2nc(-c3ccco3)c(-c3ccco3)nc2c1)N1CCOCC1 : what is it?
5.08

Look up pIC50 for this compound: COC(=O)c1c(NC(=O)Cc2cccs2)sc2c1CCCC2
5.05

pIC50 lookup needed for Nc1c(O)ccc2c1C(=O)c1ccccc1C2=O , thanks.
4.36

What value of measured pIC50 is listed for O=C(O)c1ccc(N/N=C/c2ccc(-c3ccc(Cl)cc3Cl)o2)cc1 ?
5.36

Which pIC50 value is on record for O=C(Nc1ccc([N+](=O)[O-])cc1)Nc1ccc(N2CCOCC2)c2nonc12 ?
5.33

Any idea what its pIC50 is? The compound is N/C(=N\N=C/c1ccc(-c2ccc(O)c(C(=O)O)c2)o1)N[N+](=O)[O-]
5.58

Recorded pIC50 of N#Cc1c(NC(=O)CSc2ncnc3sccc23)oc(-c2ccco2)c1-c1ccco1 , please.
5.49

What value of pIC50 has been recorded for this entry: COc1ccc(-c2csc(NC(=S)NC(=O)c3cccs3)n2)cc1OC
5.48

Bench note: what pIC50 did CCOc1cc(/C=C2\C(=O)N(c3nc(-c4ccc(Br)cc4)cs3)N=C2c2ccccc2)ccc1O show?
5.78
